Test system: human colon cancer (COL-1)
Type: in vivo, mouse
Conditions: COL-1 s.c. in nude mice, at MTD; TGIR=(1-Tx/Cx)×100; maximum during about 3 weeks
attribute-measured: TGIR (tumor growth inhibition rate, maximum)

compound	assayed-system	experimental-value
O=C(CCCCCCCCCCCCCCl)NCC(=O)N[C@@H]1[C@@H](O)[C@@H](O)[C@@H](Nc2ncnc3[nH]cnc23)O[C@H]1C(O)CO (some centres unmarked)	human colon cancer (COL-1)	94
CCCCCCCCCCCCC(F)(F)C(=O)NCC(=O)NC1C(O)C(O)C(Nc2ncnc3[nH]cnc23)OC1C(O)CO (centres unmarked)	human colon cancer (COL-1)	90
CCCC/C=C\CCCCCCCC(=O)NCC(=O)N[C@@H]1[C@@H](O)[C@@H](O)[C@@H](Nc2ncnc3[nH]cnc23)O[C@H]1C(O)CO (some centres unmarked)	human colon cancer (COL-1)	96
O=C(CCCCCCCCCCCCCF)NCC(=O)N[C@@H]1[C@@H](O)[C@@H](O)[C@@H](Nc2ncnc3[nH]cnc23)O[C@H]1C(O)CO (some centres unmarked)	human colon cancer (COL-1)	93
CCCCCCCCCCC/C=C/C(=O)NCC(=O)N[C@@H]1[C@@H](O)[C@@H](O)[C@@H](Nc2ncnc3[nH]cnc23)O[C@H]1C(O)CO (some centres unmarked)	human colon cancer (COL-1)	92
N#CCCCCCCCCCCCCCCCC(=O)NCC(=O)NC1C(O)C(O)C(Nc2ncnc3[nH]cnc23)OC1C(O)CO (centres unmarked)	human colon cancer (COL-1)	99
O=C(CCCCCCCCCCOc1ccccc1)NCC(=O)NC1C(O)C(O)C(Nc2ncnc3[nH]cnc23)OC1C(O)CO (centres unmarked)	human colon cancer (COL-1)	95
O=C(CCCCCCCCC#Cc1cccs1)NCC(=O)NC1C(O)C(O)C(Nc2ncnc3[nH]cnc23)OC1C(O)CO (centres unmarked)	human colon cancer (COL-1)	99
CC(C)CCCCCCCCCC(=O)NCC(=O)N[C@@H]1[C@@H](O)[C@@H](O)[C@@H](Nc2ncnc3[nH]cnc23)O[C@H]1C(O)CO (some centres unmarked)	human colon cancer (COL-1)	97
C=CCCCCCCCCCC(=O)NCC(=O)N[C@@H]1[C@@H](O)[C@@H](O)[C@@H](Nc2ncnc3[nH]cnc23)O[C@H]1C(O)CO (some centres unmarked)	human colon cancer (COL-1)	94
O=C(CCCCCCCCCCCCCl)NCC(=O)N[C@@H]1[C@@H](O)[C@@H](O)[C@@H](Nc2ncnc3[nH]cnc23)O[C@H]1C(O)CO (some centres unmarked)	human colon cancer (COL-1)	92
O=C(CCCCCCCCCCI)NCC(=O)NC1C(O)C(O)C(Nc2ncnc3[nH]cnc23)OC1C(O)CO (centres unmarked)	human colon cancer (COL-1)	86
CCCCCCCCCCCCCC(O)CC(=O)NCC(=O)NC1C(O)C(O)C(Nc2ncnc3[nH]cnc23)OC1C(O)CO (centres unmarked)	human colon cancer (COL-1)	99
CCCCCCCCCCCC(=O)NCC(=O)NC1C(O)C(O)C(Nc2ncnc3[nH]cnc23)OC1C(O)CO (centres unmarked) [SPM8, reference compound]	human colon cancer (COL-1)	94
CCCCCCC/C=C/C=C/C(=O)NCC(=O)N[C@@H]1[C@@H](O)[C@@H](O)[C@@H](Nc2ncnc3[nH]cnc23)O[C@H]1C(O)CO (some centres unmarked)	human colon cancer (COL-1)	99
O=C(CCCCCCCCC#Cc1ccsc1)NCC(=O)NC1C(O)C(O)C(Nc2ncnc3[nH]cnc23)OC1C(O)CO (centres unmarked)	human colon cancer (COL-1)	97
CCCCCCCC/C=C/C=C/C(=O)NCC(=O)N[C@@H]1[C@@H](O)[C@@H](O)[C@@H](Nc2ncnc3[nH]cnc23)O[C@H]1C(O)CO (some centres unmarked)	human colon cancer (COL-1)	99
O=C(CCCCCCCCCCBr)NCC(=O)N[C@@H]1[C@@H](O)[C@@H](O)[C@@H](Nc2ncnc3[nH]cnc23)O[C@H]1C(O)CO (some centres unmarked)	human colon cancer (COL-1)	95
C=CCCCCCCCCCCC(=O)NCC(=O)N[C@@H]1[C@@H](O)[C@@H](O)[C@@H](Nc2ncnc3[nH]cnc23)O[C@H]1C(O)CO (some centres unmarked)	human colon cancer (COL-1)	99
CCCCCCCCCCCCCC(CC(=O)NCC(=O)NC1C(O)C(O)C(Nc2ncnc3[nH]cnc23)OC1C(O)CO)OC(C)=O (centres unmarked)	human colon cancer (COL-1)	98
O=C(CCCCCCCCCCCCBr)NCC(=O)N[C@@H]1[C@@H](O)[C@@H](O)[C@@H](Nc2ncnc3[nH]cnc23)O[C@H]1C(O)CO (some centres unmarked)	human colon cancer (COL-1)	96
CCCCCCCCCCCCCC[C@H](O)C(=O)NCC(=O)NC1C(O)C(O)C(Nc2ncnc3[nH]cnc23)OC1C(O)CO (some centres unmarked)	human colon cancer (COL-1)	99
CCCCCCCCCCCCC/C=C/C(=O)NCC(=O)N[C@@H]1[C@@H](O)[C@@H](O)[C@@H](Nc2ncnc3[nH]cnc23)O[C@H]1C(O)CO (some centres unmarked)	human colon cancer (COL-1)	92
CCCCCCCCCCC[C@H](O)CC(=O)NCC(=O)NC1C(O)C(O)C(Nc2ncnc3[nH]cnc23)OC1C(O)CO (single isomer, unassigned)	human colon cancer (COL-1)	92
CCCCCCCCCCC[C@@H](O)CC(=O)NCC(=O)NC1C(O)C(O)C(Nc2ncnc3[nH]cnc23)OC1C(O)CO (some centres unmarked)	human colon cancer (COL-1)	94
O=C(CCCCCCCCCCCBr)NCC(=O)N[C@@H]1[C@@H](O)[C@@H](O)[C@@H](Nc2ncnc3[nH]cnc23)O[C@H]1C(O)CO (some centres unmarked)	human colon cancer (COL-1)	100
